Values from patent US12281155

TARGET_SYSTEM: Spike protein of SARS-CoV-2 strain JN.1 (hCoV-19/France/HDF-IPP21391/2023) (SARS-CoV-2)
MEASUREMENT_PROTOCOL: cell-based or functional assay
PROPERTY_LABEL: IC50, S-Fuse neutralization of live virus (µg/mL)
Note: unit µg/mL is implicit; provide only the numeric part.

The following binders have reported results that may help.
SPK002M A2 antibody (antibody, human IgG1, kappa, V domains shown) VH: EVQLVESGGGLIQPGGSLRLSCAASTITVTSNYMSWVRQAPGKGLEWVSVIYPGGSTFYADSVKGRFTISADNSKNTLYLQMNSLRAEDTAVYYCARDLVVYGMDVWGQGTTVTVSS VL: EIVLTQSPGTLSLSPGERATLSCRASQGVSSSYLAWYQQKPGQAPRLLIYGASSRATGIPGRFSGSGSGTDFTLTISRLEPEDFAVYYCQQGVTFGGGTKVEIKR    25.3
SPK002M A6 antibody (antibody, human IgG1, kappa, V domains shown) VH: EVQLVESGGGLIQPGGSLRLSCAASGITVTSNYMSWVRQAPGKGLEWVSVIYPGGSTFYADSVKGRFTISADNSKNTLYLQMNSLRAEDTAVYYCARDLVVYGMDVWGQGTTVTVSS VL: EIVLTQSPGTLSLSPGERATLSCRASQSVSSSYLAWYQQKPGQAPRLLIYGASSRATGIPGRFSGSGSGTDFTLTISRLEPEDFAIYYCQQGVTFGGGTKVEIKR    100
SPK002 antibody (parental version Cv2.3194 described in WO 2022/228827) (antibody, V domains shown) VH: EVQLVESGGGLIQPGGSLRLSCAASGITVTSNYMSWVRQAPGKGLEWVSVIYPGGSTFYADSVKGRFTISRDNSKNTLYLQMNSLRAEDTAVYYCARDLVVYGMDVWGQGTTVTVS VL: EIVLTQSPGTLSLSPGERATLSCRASQSVSSSYLAWYQQKPGQAPRLLIYGASSRATGIPGRFSGSGSGTDFTLTISRLEPEDFAIYYCQQGVTFGGGTKVEIK    100

Q: # input binder: SPK002M B2 antibody (antibody, human IgG1, kappa, V domains shown) VH: EVQLVESGGGLIQPGGSLRLSCAASIITVTSNYMSWVRQAPGKGLEWVSVIYPGGSTFYADSVKGRFTISYDNSKNTLYLQMNSLRAEDTAVYYCARDLVVYGMDVWGQGTTVTVSS VL: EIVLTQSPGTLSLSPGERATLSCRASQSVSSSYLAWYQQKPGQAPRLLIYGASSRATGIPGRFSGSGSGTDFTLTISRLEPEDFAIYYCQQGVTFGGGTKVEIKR ; wanted: its IC50, S-Fuse neutralization of live virus
Ans: 85.8

Q: Let us now turn to SPK002M A1 antibody (antibody, human IgG1, kappa, V domains shown) VH: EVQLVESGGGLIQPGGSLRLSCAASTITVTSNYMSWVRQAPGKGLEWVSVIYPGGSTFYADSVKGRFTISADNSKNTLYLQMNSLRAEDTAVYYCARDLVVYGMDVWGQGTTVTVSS VL: EIVLTQSPGTLSLSPGERATLSCRASQGFSSSYLAWYQQKPGQAPRLLIYGASSRATGIPGRFSGSGSGTDFTLTISRLEPEDFAVYYCQQGVTFGGGTKVEIKR
Ans: 1.28

Q: Input SPK002M C2 antibody (antibody, human IgG1, kappa, V domains shown) VH: EVQLVESGGGLIQPGGSLRLSCAASIITVTSNYMSWVRQAPGKGLEWVSVAYPGGSTFYADSVKGRFTISTDNSKNTLYLQMNSLRAEDTAVYYCARDLVVYGMDVWGQGTTVTVSS VL: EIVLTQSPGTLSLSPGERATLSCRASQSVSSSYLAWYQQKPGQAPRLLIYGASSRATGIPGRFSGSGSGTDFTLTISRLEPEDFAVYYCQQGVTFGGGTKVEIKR
Ans: 53.8

Q: Next record, please: SPK002M B1 antibody (antibody, human IgG1, kappa, V domains shown) VH: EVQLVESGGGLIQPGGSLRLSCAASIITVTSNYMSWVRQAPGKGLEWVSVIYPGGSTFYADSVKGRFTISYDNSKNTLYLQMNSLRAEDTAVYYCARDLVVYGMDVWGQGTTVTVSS VL: EIVLTQSPGTLSLSPGERATLSCRASQSVSDSYLAWYQQKPGQAPRLLIYGASSRATGIPGRFSGSGSGTDFTLTISRLEPEDFAIYYCQYGVTFGGGTKVEIKR
Ans: 4.1

Q: For SPK002M A3 antibody (antibody, human IgG1, kappa, V domains shown) VH: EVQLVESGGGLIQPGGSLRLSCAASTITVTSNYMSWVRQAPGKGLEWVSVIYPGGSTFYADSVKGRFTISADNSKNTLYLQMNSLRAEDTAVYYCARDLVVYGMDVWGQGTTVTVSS VL: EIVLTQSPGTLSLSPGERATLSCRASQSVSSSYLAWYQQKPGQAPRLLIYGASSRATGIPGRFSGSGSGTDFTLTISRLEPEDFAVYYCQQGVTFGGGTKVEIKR then?
Ans: 76.3

Q: Next: SPK002M C1 antibody (antibody, human IgG1, kappa, V domains shown) VH: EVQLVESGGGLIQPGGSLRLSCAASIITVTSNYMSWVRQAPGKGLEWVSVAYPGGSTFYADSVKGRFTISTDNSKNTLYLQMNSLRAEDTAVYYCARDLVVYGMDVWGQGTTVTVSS VL: EIVLTQSPGTLSLSPGERATLSCRASQSVSDSYLAWYQQKPGQAPRLLIYGASSRATGIPGRFSGSGSGTDFTLTISRLEPEDFAVYYCQYGVTFGGGTKVEIKR
Ans: 1.73

Q: Another binder to check: SPK002M A4 antibody (antibody, human IgG1, kappa, V domains shown) VH: EVQLVESGGGLIQPGGSLRLSCAASVITVTSNYMSWVRQAPGKGLEWVSVIYPGGSTFYADSVKGRFTISADNSKNTLYLQMNSLRAEDTAVYYCARDLVVYGMDVWGQGTTVTVSS VL: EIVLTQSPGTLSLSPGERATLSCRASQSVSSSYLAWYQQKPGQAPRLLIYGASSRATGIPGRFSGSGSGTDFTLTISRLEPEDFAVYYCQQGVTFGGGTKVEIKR
Ans: 54.6

Q: Now the same for SPK002M C3 antibody (antibody, human IgG1, kappa, V domains shown) VH: EVQLVESGGGLIQPGGSLRLSCAASIITVTSNYMSWVRQAPGKGLEWVSVIYPGGSTFYADSVKGRFTISTDNSKNTLYLQMNSLRAEDTAVYYCARDLVVYGMDVWGQGTTVTVSS VL: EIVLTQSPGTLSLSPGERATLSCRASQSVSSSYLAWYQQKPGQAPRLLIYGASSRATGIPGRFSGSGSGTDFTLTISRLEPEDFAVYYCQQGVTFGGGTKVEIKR
Ans: 60.1

Q: Moving on to SPK002M A5 antibody (antibody, human IgG1, kappa, V domains shown) VH: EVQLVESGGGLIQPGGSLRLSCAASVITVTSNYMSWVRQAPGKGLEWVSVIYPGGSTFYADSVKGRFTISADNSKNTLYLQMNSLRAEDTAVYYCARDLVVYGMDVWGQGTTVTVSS VL: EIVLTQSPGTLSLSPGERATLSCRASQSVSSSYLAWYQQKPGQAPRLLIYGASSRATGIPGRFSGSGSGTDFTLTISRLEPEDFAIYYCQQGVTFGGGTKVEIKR
Ans: 50.9
